Measured inhibition accompanies every entry in the list below.
molecular target: Prostaglandin G/H synthase 1 (Homo sapiens, UniProt P23219); test: Inhibition of COX-1 (unknown origin) using arachidonic acid as substrate assessed as formation of prostanoid products at 500 uM preincubated for 10 mins prior to substrate addition measured after 2 mins by Ellman's method relative to control
Sequence (P23219 whole entry): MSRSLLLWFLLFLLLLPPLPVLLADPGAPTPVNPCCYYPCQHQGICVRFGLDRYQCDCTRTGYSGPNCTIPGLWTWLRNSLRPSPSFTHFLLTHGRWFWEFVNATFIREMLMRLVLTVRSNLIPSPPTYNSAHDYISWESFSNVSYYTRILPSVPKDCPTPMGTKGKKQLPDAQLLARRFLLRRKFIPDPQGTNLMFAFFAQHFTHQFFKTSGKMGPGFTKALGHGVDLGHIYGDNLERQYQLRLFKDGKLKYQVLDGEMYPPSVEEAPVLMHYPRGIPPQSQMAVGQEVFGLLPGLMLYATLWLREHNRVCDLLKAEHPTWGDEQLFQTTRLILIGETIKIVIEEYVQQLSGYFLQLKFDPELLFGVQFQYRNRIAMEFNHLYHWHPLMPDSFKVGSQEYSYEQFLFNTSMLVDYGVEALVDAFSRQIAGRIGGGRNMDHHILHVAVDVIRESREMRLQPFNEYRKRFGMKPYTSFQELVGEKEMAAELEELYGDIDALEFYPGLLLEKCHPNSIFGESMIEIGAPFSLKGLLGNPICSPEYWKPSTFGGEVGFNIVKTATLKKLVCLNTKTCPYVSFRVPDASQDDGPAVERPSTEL
Give the quantity in %, number only.

O=[N+]([O-])c1ccc(O)c2ncccc12 | 97
O=C1CN(/N=C/c2ccc([N+](=O)[O-])o2)C(=O)N1 | 66

From here, focus on the item given below.
Identify the reported inhibition for the following entry. CCn1cc(C(=O)O)c(=O)c2ccc(C)nc21 34

###

molecular target: D(2) dopamine receptor (Homo sapiens) (UniProt P14416); assay: Agonist activity at human recombinant dopamine D2 long receptor expressed in CHOK1 cells coexpressing mitochondrial apoaequorin at 100 uM by luminometric analysis relative to quinpirol; type: cell-based; details: CHO-K1
Sequence (P14416 whole entry): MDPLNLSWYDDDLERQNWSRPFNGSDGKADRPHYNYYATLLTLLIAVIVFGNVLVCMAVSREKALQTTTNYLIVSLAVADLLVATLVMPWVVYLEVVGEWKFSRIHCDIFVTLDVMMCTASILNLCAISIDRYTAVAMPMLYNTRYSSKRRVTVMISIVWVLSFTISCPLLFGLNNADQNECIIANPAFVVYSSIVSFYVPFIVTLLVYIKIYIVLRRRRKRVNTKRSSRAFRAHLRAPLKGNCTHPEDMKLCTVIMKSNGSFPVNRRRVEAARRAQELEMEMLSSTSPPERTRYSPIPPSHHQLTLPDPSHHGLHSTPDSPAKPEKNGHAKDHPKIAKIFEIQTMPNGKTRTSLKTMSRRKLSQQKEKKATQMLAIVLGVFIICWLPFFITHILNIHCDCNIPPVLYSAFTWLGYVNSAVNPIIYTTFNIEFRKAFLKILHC
measure: Activity (%)
Number in %, nothing else.

COc1cc2nc(N3CCN(C(=O)C4COc5ccccc5O4)CC3)nc(N)c2cc1OC (centres undefined) | 2.4

Please give the documented Activity of O[C@@H](c1cc(C(F)(F)F)nc2c(C(F)(F)F)cccc12)[C@H]1CCCCN1 (relative stereo) 45

# return recorded Activity for input CN(C)CCCN1c2ccccc2CCc2ccc(Cl)cc21 13

Kindly indicate its recorded Activity. Item: NC1=NCC2c3ccccc3Cc3ccccc3N12 (centres undefined) -0.33

Annotate the molecule CN(C)CC/C=C1/c2ccccc2COc2ccc(CC(=O)O)cc21 with its measured Activity. -0.14

For the molecule CCc1cccc2c3c([nH]c12)C(CC)(CC(=O)O)OCC3 (centres undefined) , give its measured Activity value. 0.96

Given the molecule Nc1nc2[nH]cnc2c(=S)[nH]1 , write its reported Activity. 0.61

Please give the documented Activity of CC(CN1c2ccccc2Sc2ccccc21)N(C)C (centres undefined) 3.5

Consider the molecule C#C[C@]1(O)CC[C@H]2[C@@H]3CCC4=CCCC[C@@H]4[C@H]3C(=C)C[C@@]21CC and give its recorded Activity. 7.1

Recall and state the measured Activity for CC(N)C12CC3CC(CC(C3)C1)C2 (centres undefined) . 3.6

Give reported Activity value for O=C(c1ccc(OCCN2CCCCC2)cc1)c1c(-c2ccc(O)cc2)sc2cc(O)ccc12 4.7

Return Activity for the following molecule: C[C@@H]1O[C@@H]1P(=O)(O)O 0.09

Read the entry O=C1c2c(O)ccc(O)c2C(=O)c2c(NCCNCCO)ccc(NCCNCCO)c21 and write its reported Activity. -0.4

Tell us which Activity value is on record for CN(C)CCC=C1c2ccccc2C=Cc2ccccc21 1

###

Reported values of inhibition for individual entries
biological target: D(2) dopamine receptor (Homo sapiens) (UniProt P14416); test: Antagonist activity at human recombinant dopamine D2 long receptor expressed in CHOK1 cells coexpressing mitochondrial apoaequorin assessed as inhibition of agonist-induced effect at 50 uM after 15 mins by luminometric analysis relative to haloperidol; assay type: cell-based; details: CHO-K1

C#C[C@]1(O)CC[C@H]2[C@@H]3CCC4=CCCC[C@@H]4[C@H]3C(=C)C[C@@]21CC | 88%
CN(C)CCC=C1c2ccccc2C=Cc2ccccc21 | 95%
CN(C)CCCN1c2ccccc2CCc2ccc(Cl)cc21 | 92%

Read off the recorded inhibition for C[C@@H]1O[C@@H]1P(=O)(O)O 29%

Give reported inhibition value for NC1=NCC2c3ccccc3Cc3ccccc3N12 (stereo not drawn) 5.5%

Find the measured inhibition of O=C(c1ccc(OCCN2CCCCC2)cc1)c1c(-c2ccc(O)cc2)sc2cc(O)ccc12 and report it. 88%

Supply reported inhibition belonging to this compound: Nc1nc2[nH]cnc2c(=S)[nH]1 21%

###

biological target: Prostaglandin G/H synthase 1 (Homo sapiens)
measure: Ki (µM)
Kindly provide the numeric value in µM only, without the unit symbol.

Fetch value of Ki on Prostaglandin G/H synthase 1 (Homo sapiens) for CC/C=C\C/C=C\C/C=C\CCCCCCCC(=O)O . 4

###

biological target: Prostaglandin G/H synthase 2 (Homo sapiens, UniProt P35354)
Sequence (P35354 whole entry): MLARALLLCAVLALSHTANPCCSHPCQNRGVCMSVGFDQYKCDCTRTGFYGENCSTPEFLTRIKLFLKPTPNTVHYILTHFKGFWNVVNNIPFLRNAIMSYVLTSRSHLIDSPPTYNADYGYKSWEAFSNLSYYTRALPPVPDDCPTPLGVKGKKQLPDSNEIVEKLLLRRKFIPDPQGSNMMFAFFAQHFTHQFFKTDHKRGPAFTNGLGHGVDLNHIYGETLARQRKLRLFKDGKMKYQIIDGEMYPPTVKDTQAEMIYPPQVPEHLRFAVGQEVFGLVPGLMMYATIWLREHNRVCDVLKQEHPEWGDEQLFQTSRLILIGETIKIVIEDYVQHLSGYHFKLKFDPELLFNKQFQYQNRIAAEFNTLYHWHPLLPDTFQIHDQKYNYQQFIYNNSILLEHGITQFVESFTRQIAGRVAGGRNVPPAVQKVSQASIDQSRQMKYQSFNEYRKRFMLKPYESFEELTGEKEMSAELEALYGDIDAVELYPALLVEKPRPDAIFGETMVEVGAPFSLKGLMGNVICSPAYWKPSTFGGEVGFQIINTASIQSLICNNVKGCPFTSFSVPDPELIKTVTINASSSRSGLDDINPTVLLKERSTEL
measure: Ki (nM)
Unit nM implied. Number only.

Please give measured Ki of the following entry: O=[N+]([O-])c1ccc(O)c2ncccc12 1000

###

target: D(1A) dopamine receptor (Homo sapiens); assay: Agonist activity at human recombinant dopamine D1 receptor expressed in CHOK1 cells assessed as stimulation of cAMP accumulation at 100 uM after 30 mins by HTRF assay relative to SKF81297; format: functional, cell-based; details: CHO-K1
// reported Activity for each item listed
Write the answer as a number in %, unit excluded.

O[C@@H](c1cc(C(F)(F)F)nc2c(C(F)(F)F)cccc12)[C@H]1CCCCN1 (relative stereo) | 0.6
CC(N)C12CC3CC(CC(C3)C1)C2 (centres undefined) | -0.8

For the compound CC(CN1c2ccccc2Sc2ccccc21)N(C)C (centres undefined) , give its measured Activity value. -7.4

Answer with the recorded Activity for the compound listed here: CN(C)CC/C=C1/c2ccccc2COc2ccc(CC(=O)O)cc21 -1.7

Dear colleague, please send me the reported Activity for C#C[C@]1(O)CC[C@H]2[C@@H]3CCC4=CCCC[C@@H]4[C@H]3C(=C)C[C@@]21CC when you can. 2.8

###

target: UniProt P21728; test: Antagonist activity at human recombinant dopamine D1 receptor expressed in CHOK1 cells assessed as inhibition of agonist-induced cAMP accumulation at 100 uM preincubated for 10 mins prior to agonist addition measured after 30 mins by HTRF assay relative to SCH23390; format: functional, cell-based; settings: CHO-K1
Sequence (P21728 whole entry): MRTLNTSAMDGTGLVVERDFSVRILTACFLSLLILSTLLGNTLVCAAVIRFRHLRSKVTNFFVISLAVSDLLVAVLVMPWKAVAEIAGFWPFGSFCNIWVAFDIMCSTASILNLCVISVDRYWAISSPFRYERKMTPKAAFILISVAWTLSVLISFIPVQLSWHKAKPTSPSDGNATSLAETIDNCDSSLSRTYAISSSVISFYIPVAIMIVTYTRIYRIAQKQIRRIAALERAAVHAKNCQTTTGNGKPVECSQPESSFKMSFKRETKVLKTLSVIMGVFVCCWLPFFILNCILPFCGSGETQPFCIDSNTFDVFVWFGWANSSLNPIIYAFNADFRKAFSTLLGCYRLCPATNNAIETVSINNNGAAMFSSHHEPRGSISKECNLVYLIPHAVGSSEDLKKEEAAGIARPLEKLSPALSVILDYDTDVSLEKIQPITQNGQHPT
measure: inhibition (%)
Report only the number, with the unit % understood.

Previously resolved entries follow.
CN(C)CCCN1c2ccccc2CCc2ccc(Cl)cc21 | 99
O[C@@H](c1cc(C(F)(F)F)nc2c(C(F)(F)F)cccc12)[C@H]1CCCCN1 (relative stereo) | 82
COc1cc2nc(N3CCN(C(=O)C4COc5ccccc5O4)CC3)nc(N)c2cc1OC (centres undefined) | 102
CC(CN1c2ccccc2Sc2ccccc21)N(C)C (centres undefined) | 84
CN(C)CCC=C1c2ccccc2C=Cc2ccccc21 | 98

Recall the reported inhibition of CN(C)CC/C=C1/c2ccccc2COc2ccc(CC(=O)O)cc21 when tested on UniProt P21728. 20

Please report the measured inhibition for CC(N)C12CC3CC(CC(C3)C1)C2 (centres undefined) tested on UniProt P21728. -0.4

###

target: Angiotensin-converting enzyme (Homo sapiens, UniProt P12821); assay: Inhibition of ACE (unknown origin) assessed as 3-Hydroxybutyril-glycil-glycil-glycine conversion to 3-hydroxybutyric acid at 500 uM after 60 mins by WST assay relative to control
Sequence (P12821 whole entry): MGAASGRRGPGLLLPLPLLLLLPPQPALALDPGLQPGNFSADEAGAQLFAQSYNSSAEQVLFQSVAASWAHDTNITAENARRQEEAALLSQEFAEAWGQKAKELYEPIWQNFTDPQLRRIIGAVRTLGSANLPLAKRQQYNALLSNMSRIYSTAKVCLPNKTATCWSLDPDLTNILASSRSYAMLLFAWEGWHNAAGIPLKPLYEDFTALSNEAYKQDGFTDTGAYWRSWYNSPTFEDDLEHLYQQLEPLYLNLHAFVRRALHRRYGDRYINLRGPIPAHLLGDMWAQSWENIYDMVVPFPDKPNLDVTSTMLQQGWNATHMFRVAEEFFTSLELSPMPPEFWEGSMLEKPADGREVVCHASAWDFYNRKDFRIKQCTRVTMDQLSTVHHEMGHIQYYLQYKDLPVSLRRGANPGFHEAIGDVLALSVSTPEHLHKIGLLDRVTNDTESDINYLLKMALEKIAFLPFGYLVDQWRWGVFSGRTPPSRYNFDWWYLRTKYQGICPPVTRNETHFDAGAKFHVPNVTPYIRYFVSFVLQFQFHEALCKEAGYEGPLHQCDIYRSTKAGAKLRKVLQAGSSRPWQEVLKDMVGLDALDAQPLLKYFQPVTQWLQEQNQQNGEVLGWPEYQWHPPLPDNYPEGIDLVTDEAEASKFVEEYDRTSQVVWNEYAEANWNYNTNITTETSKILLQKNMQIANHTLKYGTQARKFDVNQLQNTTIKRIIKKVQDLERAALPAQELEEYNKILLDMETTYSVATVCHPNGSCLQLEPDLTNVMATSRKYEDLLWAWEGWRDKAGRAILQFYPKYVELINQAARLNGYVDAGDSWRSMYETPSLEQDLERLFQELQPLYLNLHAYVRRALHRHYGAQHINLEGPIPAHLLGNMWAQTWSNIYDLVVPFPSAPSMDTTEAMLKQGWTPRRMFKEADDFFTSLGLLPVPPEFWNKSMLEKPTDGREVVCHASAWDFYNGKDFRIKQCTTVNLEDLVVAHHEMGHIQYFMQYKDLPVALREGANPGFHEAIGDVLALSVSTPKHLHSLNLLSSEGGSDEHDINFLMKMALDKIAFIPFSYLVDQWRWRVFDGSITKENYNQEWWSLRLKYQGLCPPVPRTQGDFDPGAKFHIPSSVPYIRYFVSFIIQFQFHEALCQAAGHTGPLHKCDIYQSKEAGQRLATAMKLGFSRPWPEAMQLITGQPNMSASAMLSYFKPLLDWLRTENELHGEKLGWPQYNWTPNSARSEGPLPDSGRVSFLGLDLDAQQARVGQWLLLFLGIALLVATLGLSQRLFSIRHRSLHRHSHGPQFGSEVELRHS
Below, each entry is listed with its recorded inhibition.
State the answer as a number, implicitly in %.

Example molecules with recorded inhibition:
Cc1nc(Nc2ncc(C(=O)Nc3c(C)cccc3Cl)s2)cc(N2CCN(CCO)CC2)n1 | 46
Cc1c(O)cccc1C(=O)N[C@@H](CSc1ccccc1)[C@H](O)CN1C[C@H]2CCCC[C@H]2C[C@H]1C(=O)NC(C)(C)C | 48

Give me measured inhibition, please, for this molecule: CO[C@@H]1[C@@H](OC(N)=O)[C@@H](O)[C@H](Oc2ccc3c(O)c(NC(=O)c4ccc(O)c(CC=C(C)C)c4)c(=O)oc3c2C)OC1(C)C 75

Report inhibition for CCCc1nc2c(C)cc(-c3nc4ccccc4n3C)cc2n1Cc1ccc(-c2ccccc2C(=O)O)cc1 97

Find the measured inhibition of O=C(O)[C@@H]1CCCN1 and report it. 93

###

molecular target: Prostaglandin G/H synthase 1 (Homo sapiens, UniProt P23219); test: Inhibition of COX-1 (unknown origin) using arachidonic acid as substrate assessed as formation of prostanoid products at 500 uM preincubated for 10 mins prior to substrate addition measured after 2 mins by Ellman's method relative to control
Rule: inhibition of 90% or more gives 1.0; anything lower gives 0.0.

Please review the entries below; each comes with its answer.
CC/C=C\C/C=C\C/C=C\CCCCCCCC(=O)O [LINOLENIC ACID] | 1.0
CC1(C)NC(=O)N(c2ccc([N+](=O)[O-])c(C(F)(F)F)c2)C1=O | 1.0
Oc1ccc(OCc2ccccc2)cc1 | 0.0
O=C(O)CCCCC1CCSS1 (stereo not given) | 1.0
C[C@H](CS)C(=O)N1CCC[C@H]1C(=O)O [CAPTOPRIL] | 0.0
Nc1ccc(/N=N/c2ccccc2)c(N)n1 | 0.0
CC[C@H]1OC(=O)[C@H](C)[C@@H](O[C@H]2C[C@@](C)(OC)[C@@H](O)[C@H](C)O2)[C@H](C)[C@@H](O[C@@H]2O[C@H](C)C[C@H](N(C)C)[C@H]2O)[C@](C)(O)C[C@@H](C)CN(C)[C@H](C)[C@@H](O)[C@]1(C)O | 0.0
CC(C)C(=O)Nc1ccc([N+](=O)[O-])c(C(F)(F)F)c1 | 1.0

Quick check, inhibition >= 90%? NS(=O)(=O)c1cc(C(=O)O)c(NCc2ccco2)cc1Cl 0.0
